The entries below come with measured PBM E-score values attached.
# Assayed target: Gcr1 (UniProt P07261)
# Sequence: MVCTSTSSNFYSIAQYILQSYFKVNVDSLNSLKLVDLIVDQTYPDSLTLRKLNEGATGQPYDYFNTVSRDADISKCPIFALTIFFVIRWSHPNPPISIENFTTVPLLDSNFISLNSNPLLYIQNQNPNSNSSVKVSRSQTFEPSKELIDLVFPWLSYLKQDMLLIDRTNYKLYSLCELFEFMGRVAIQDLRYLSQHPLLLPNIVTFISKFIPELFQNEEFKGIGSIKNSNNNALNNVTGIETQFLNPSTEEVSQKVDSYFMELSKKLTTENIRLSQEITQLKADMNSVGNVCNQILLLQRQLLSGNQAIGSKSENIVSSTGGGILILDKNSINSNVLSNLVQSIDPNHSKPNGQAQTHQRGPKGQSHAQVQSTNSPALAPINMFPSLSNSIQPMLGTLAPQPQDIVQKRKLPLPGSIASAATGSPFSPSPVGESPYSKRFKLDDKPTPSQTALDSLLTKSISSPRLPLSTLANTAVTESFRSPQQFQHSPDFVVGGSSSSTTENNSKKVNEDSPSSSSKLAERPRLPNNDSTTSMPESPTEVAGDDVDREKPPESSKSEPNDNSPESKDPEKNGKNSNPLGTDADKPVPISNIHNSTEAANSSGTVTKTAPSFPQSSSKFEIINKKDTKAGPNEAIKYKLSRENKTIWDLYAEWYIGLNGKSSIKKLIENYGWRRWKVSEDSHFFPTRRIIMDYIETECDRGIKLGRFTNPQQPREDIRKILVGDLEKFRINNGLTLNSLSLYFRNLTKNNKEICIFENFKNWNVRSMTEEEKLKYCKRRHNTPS
# Experiment description: PBM E-score (8-mer binding enrichment) (E-score (-0.5 to 0.5)); higher = stronger / more preferred TF binding
# Test context: protein concentration: 100 nM; construct: GST-full length
In all, about 33,000 sequences were measured (“E-score (-0.5 to 0.5)”: median about -0.011, highest 2% from about 0.28 on). The full list was thinned out, with the highest values kept by preference.
Endpoint name: PBM E-score

{"Input sequence": "ATTCCAGG", "Test value": 0.097}
{"Input sequence": "GAGGCGCC", "Test value": 0.302}
{"Input sequence": "AGAGTCCC", "Test value": 0.0617}
{"Input sequence": "CTTCCAGC", "Test value": 0.123}
{"Input sequence": "ACAGCAGT", "Test value": -0.0218}
{"Input sequence": "ATTCCAGA", "Test value": 0.286}
{"Input sequence": "CGCGTTAA", "Test value": -0.167}
{"Input sequence": "AGTGAGAC", "Test value": -0.352}
{"Input sequence": "CGAGTCCA", "Test value": -0.051}
{"Input sequence": "ATCCGCTC", "Test value": 0.0142}
{"Input sequence": "ATGTACAC", "Test value": 0.00539}
{"Input sequence": "AAAAGTGA", "Test value": 0.0915}
{"Input sequence": "AAGGGCTA", "Test value": -0.138}
{"Input sequence": "TGCACCCA", "Test value": 0.151}
{"Input sequence": "ACTGAAAC", "Test value": 0.0485}
{"Input sequence": "CCCCGCCC", "Test value": 0.338}
{"Input sequence": "CAGGCGCG", "Test value": -0.0119}
{"Input sequence": "CCAGCAGC", "Test value": 0.272}
{"Input sequence": "TCGGGACA", "Test value": -0.0131}
{"Input sequence": "AGCACCCC", "Test value": 0.131}
{"Input sequence": "AAGGTGCA", "Test value": -0.0118}
{"Input sequence": "CAAGCAGC", "Test value": 0.324}
{"Input sequence": "GCACCTGA", "Test value": 0.0656}
{"Input sequence": "CGAGTCCC", "Test value": 0.168}
{"Input sequence": "ACCAATAA", "Test value": 0.0976}
{"Input sequence": "AAAAGTGG", "Test value": 0.381}
{"Input sequence": "AGAGCAGC", "Test value": 0.0483}
{"Input sequence": "CGGGGTCA", "Test value": -0.096}
{"Input sequence": "CCTTCCAG", "Test value": 0.0686}
{"Input sequence": "AAAAGTAT", "Test value": -0.0691}
{"Input sequence": "TCCAAAAA", "Test value": 0.253}
{"Input sequence": "GAAGCAGC", "Test value": 0.24}
{"Input sequence": "AAAGCAGC", "Test value": -0.0508}
{"Input sequence": "AAGGCGCC", "Test value": 0.258}
{"Input sequence": "CAGGCGCA", "Test value": -0.0694}
{"Input sequence": "AGTCCAGA", "Test value": -0.0665}
{"Input sequence": "ACCGCCAT", "Test value": -0.181}
{"Input sequence": "GAATTTCC", "Test value": 0.082}
{"Input sequence": "CGTGAGGC", "Test value": -0.0867}
{"Input sequence": "GGTGTTCA", "Test value": 0.106}

====

Reported PBM E-score values follow for various sequences
# Assayed target: Gcr1 (UniProt P07261)
# Sequence: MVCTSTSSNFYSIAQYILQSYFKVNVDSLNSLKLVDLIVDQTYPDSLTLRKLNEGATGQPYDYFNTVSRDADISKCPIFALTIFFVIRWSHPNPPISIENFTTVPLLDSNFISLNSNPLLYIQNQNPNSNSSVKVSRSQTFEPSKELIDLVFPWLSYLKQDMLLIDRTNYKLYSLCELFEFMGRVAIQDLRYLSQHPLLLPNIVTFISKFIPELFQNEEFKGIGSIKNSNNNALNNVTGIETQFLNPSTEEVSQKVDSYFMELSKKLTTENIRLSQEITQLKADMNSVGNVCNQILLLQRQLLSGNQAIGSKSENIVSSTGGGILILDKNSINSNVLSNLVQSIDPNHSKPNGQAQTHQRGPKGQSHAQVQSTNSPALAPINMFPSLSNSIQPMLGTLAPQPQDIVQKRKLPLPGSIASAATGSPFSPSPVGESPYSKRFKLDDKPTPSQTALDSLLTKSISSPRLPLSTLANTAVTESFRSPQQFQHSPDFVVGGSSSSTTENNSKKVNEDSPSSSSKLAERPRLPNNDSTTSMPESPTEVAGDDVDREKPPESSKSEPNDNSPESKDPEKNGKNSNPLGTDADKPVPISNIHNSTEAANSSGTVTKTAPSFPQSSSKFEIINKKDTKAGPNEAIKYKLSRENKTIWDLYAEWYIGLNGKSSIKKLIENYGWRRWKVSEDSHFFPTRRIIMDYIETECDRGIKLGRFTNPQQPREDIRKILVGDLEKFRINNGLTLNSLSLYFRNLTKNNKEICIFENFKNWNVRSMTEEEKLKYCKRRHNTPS
# Experiment description: PBM E-score (8-mer binding enrichment) (E-score (-0.5 to 0.5)); higher = stronger / more preferred TF binding
# Test context: protein concentration: 100 nM; construct: GST-full length
In all, about 33,000 sequences were measured (“E-score (-0.5 to 0.5)”: median about -0.011, highest 2% from about 0.28 on). Shown is part of a subset that was picked to be rich in the highest values.
Endpoint name: PBM E-score

{"Input sequence": "AATCAGAC", "Endpoint name": "PBM E-score", "Test value": 0.0464}
{"Input sequence": "ACAGGATG", "Endpoint name": "PBM E-score", "Test value": 0.372}
{"Input sequence": "AGAGGAAC", "Endpoint name": "PBM E-score", "Test value": 0.177}
{"Input sequence": "TACCCGGA", "Endpoint name": "PBM E-score", "Test value": -0.0492}
{"Input sequence": "GCAGCTGA", "Endpoint name": "PBM E-score", "Test value": 0.336}

====

# Assayed target: Gcr1 (UniProt P07261)
# Sequence: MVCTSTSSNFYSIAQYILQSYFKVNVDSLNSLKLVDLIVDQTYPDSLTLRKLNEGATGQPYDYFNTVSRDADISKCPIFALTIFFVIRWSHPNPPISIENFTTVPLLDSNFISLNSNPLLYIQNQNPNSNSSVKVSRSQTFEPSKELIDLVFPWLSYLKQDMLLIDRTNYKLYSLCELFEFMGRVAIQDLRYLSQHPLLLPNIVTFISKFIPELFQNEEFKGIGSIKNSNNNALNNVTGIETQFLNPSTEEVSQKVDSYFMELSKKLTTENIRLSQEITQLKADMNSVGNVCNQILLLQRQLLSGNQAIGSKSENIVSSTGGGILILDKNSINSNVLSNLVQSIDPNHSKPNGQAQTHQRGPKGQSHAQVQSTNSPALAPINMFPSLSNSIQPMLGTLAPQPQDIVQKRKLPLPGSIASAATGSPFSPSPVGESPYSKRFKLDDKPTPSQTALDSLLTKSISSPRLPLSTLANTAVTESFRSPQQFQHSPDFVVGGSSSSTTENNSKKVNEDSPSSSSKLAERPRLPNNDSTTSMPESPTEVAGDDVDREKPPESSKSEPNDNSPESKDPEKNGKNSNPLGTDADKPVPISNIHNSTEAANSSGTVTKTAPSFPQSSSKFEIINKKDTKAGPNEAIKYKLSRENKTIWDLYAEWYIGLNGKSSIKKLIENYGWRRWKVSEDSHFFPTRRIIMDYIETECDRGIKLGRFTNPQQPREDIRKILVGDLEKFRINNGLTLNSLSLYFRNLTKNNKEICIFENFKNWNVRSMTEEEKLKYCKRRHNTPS
# Experiment description: PBM E-score (8-mer binding enrichment) (E-score (-0.5 to 0.5)); higher = stronger / more preferred TF binding
# Test context: protein concentration: 100 nM; construct: GST-full length
In all, about 33,000 sequences were measured (“E-score (-0.5 to 0.5)”: median about -0.011, highest 2% from about 0.28 on). What follows is part of a selection rich in the highest values, with near analogues and random picks from the rest.
Each entry falls in a class defined on PBM E-score; the bands are low band (below -0.1), middle band (-0.1 to below 0.03), high band (0.03 or more)

{"Input sequence": "GTGCTACA", "Classification": "low band"}
{"Input sequence": "CAGAGAAA", "Classification": "middle band"}
{"Input sequence": "AAAACCGT", "Classification": "high band"}
{"Input sequence": "CAGCATCC", "Classification": "high band"}
{"Input sequence": "GAGCATCA", "Classification": "middle band"}
{"Input sequence": "ATAGCACC", "Classification": "high band"}
{"Input sequence": "GAGCATAC", "Classification": "low band"}
{"Input sequence": "AGGGCTTG", "Classification": "low band"}
{"Input sequence": "CCGGCTTA", "Classification": "middle band"}
{"Input sequence": "CGGGCTTA", "Classification": "middle band"}
{"Input sequence": "AGCAAGTA", "Classification": "low band"}
{"Input sequence": "CATTGAAC", "Classification": "high band"}
{"Input sequence": "AAGCATCA", "Classification": "middle band"}
{"Input sequence": "TATGAAGA", "Classification": "high band"}
{"Input sequence": "AGGGCTTA", "Classification": "low band"}

Origin of measurements: the supplement of paper PMC3334620
